# apparent KD of MS2 coat protein per entry
Tested on: MS2 coat protein
TEST_NAME: apparent KD of MS2 coat protein; designed switch direction (-1 OFF switch, 1 ON switch): -1; higher = weaker reporter binding
DETAILS: input ligand: FMN 200 uM
Write the answer as a number in nM, unit excluded.

Some solved cases for reference:
{"INPUT_SEQUENCE": "GGUUUAGUAGAGGAUAUGUCACUGUCGCAGGAGACAGAAGGCUGCACAUGAGGAUCACCCAUGUCGGUAAUGAG [Eternabot (L1) Solution 89] (Eterna round: R97, puzzle: Exclusion 6)", "MEASURED_ATTRIBUTE": "apparent KD of MS2 coat protein", "RECORDED_RESULT": 21.8}
{"INPUT_SEQUENCE": "GCCGUAAAUGUGAGGAUAUACCUAUGGAAACAUAGGUAGAAGGCACAUGAGGAUCACCCAUGUUCUCAAUCGGC [Mat - Exclusion 4 - Eli Mod - D6] (Eterna round: R97, puzzle: Brourd's mod of Exclusion 4)", "MEASURED_ATTRIBUTE": "apparent KD of MS2 coat protein", "RECORDED_RESULT": 775}

Documented apparent KD of MS2 coat protein of AGUUGGCGAGGAUAUACAUGAGGAUCACCCAUGUGAGAGAUACUAGUGAGGUCGAUUGGUAGAAGGCGCUGACA [Mat X3R4 m19] (Eterna round: R97, puzzle: Exclusion 3) : 70.8

Documented apparent KD of MS2 coat protein of CCCAUGCCUGAGGAUAUGCUGUACAAAAGUACUGCAGAAGGCGGGACAUGAGGAUCACCCAUGUGGCGAAAGCC [Omei Ex G6] (Eterna round: R97, puzzle: Exclusion 6) : 67

Documented apparent KD of MS2 coat protein of UUCAUUGCAGGAUAUACAUGAGGAUCACCCAUGUGACCAGUGGCCUGUUGCGGCUCCAGUAGAAGGGCAUGUGU [Eternabot (L2) Solution 89] (Eterna round: R97, puzzle: Exclusion 3) : 63.8
